# Test system: Leishmania donovani
# TEST NAME: Antileishmanial activity against Leishmania donovani intracellular amastigotes infected in mouse J774A1 cells after 48 hrs by luciferase activity-based drug susceptibility assay
# Type: functional, organism-based
# ASSAY CONDITIONS: J774.A1, 48 h
Classify: t when IC50 is strictly less than 2 µg/mL; f when IC50 is not.

[[record]]
compound = "FC(F)(F)c1ccc(OC2C(Cn3ccnc3)CCCC2Cn2ccnc2)cc1 (stereo not given)"
assayed_system = "Leishmania donovani"
class = "t"

[[record]]
compound = "N=C(N)c1ccc(OCCCCCOc2ccc(C(=N)N)cc2)cc1"
assayed_system = "Leishmania donovani"
class = "f"

[[record]]
compound = "O=[N+]([O-])c1ccc(O[C@H]2CCCC[C@@H]2Cn2ccnc2)cc1"
assayed_system = "Leishmania donovani"
class = "f"

[[record]]
compound = "O=[N+]([O-])c1ccccc1OC1C(Cn2ccnc2)CCCC1Cn1ccnc1 (stereo not given)"
assayed_system = "Leishmania donovani"
class = "f"

[[record]]
compound = "O=[N+]([O-])c1ccc(OC2C(Cn3ccnc3)CCCC2Cn2ccnc2)c(F)c1 (stereo not given)"
assayed_system = "Leishmania donovani"
class = "t"

